Taken from PubChem BioAssay (Tox21).

Assay remarks: A CellTox Green Cytotoxicity Assay to monitor cytotoxicity in HepG2 cells - 8 hour (AID 1224890); note: nearly all actives have a fitted effect of over 45% in size
Condition label: CellTox Green fluorescence; series mostly up to 76.8 µM
Results filed as inconclusive are left out. The source made the active and inactive calls. Calls come from the whole dose curve; as a rule, active = well fitted activation curve with a large enough effect in the repeat runs; inconclusive = weak or mixed curves; inactive = flat fitted curve, though single readings scatter.
Parameter call: string, one of active, inactive

O=C(N[C@H](CO)[C@H](O)c1ccc([N+](=O)[O-])cc1)C(Cl)Cl
inactive
CC(C)(c1ccc(Oc2ccc(N)cc2)cc1)c1ccc(Oc2ccc(N)cc2)cc1
inactive
CC(C)(C)c1cc(CCC(=O)OCCSCCOC(=O)CCc2cc(C(C)(C)C)c(O)c(C(C)(C)C)c2)cc(C(C)(C)C)c1O
inactive
O[Si](c1ccccc1)(c1ccccc1)c1ccccc1
inactive
CC1=C(/C=C/C(C)=C/C=C/C(C)=C\C(=O)O)C(C)(C)CCC1
inactive

Consider the additional molecule presented here.
Q: Give the logged outcome of this assay for the following molecule: O=C1OC(=O)c2cc(-c3ccc4c(c3)C(=O)OC4=O)ccc21
A: inactive

----------
Assay remarks: qHTS assay to identify small molecule antagonists of the androgen receptor (AR) signaling pathway - cell viability counter screen (AID 743033; note: nearly all actives have a fitted effect of over 45% in size)
Condition label: AR-bla HEK293 viability, CellTiter-Glo luminescence, 16 h; series mostly up to 58.5 µM
Text: National Center for Advancing Translational Sciences [NCATS] NIH Chemical Genomics Center [NCGC] U.S. Environmental Protection Agency [EPA] National Institutes of Environmental Health Sciences [NIEHS] National Toxicology Program [NTP] U.S. Food and Drug Administration [FDA] Androgen receptor (AR), a nuclear hormone receptor, plays a critical role in AR-dependent prostate cancer and other androgen related diseases. […]
Results filed as inconclusive are left out. Active and inactive are the calls of the source. Calls come from the whole dose curve; as a rule, active = well fitted cell-killing curve with a large enough effect in the repeat runs; inconclusive = weak or mixed curves; inactive = no such curve, though single readings can be large or run the other way.
Parameter call: string, one of active, inactive

Check out these entries, answers already filled in.
NCc1cccc(C2CCN(C(=O)c3ccc(C#Cc4ccccc4F)o3)CC2)c1
active
C=N[C@@H](C(=O)N[C@@H]1C(=O)N2[C@@H]1SC(C)(C)[C@@H]2C(=O)O)c1ccccc1
inactive

Q: Give the logged outcome of this assay for the following compound: O=C(CCN1CCC(c2ccccc2)C1)c1ccc2c(c1)OCCO2 (stereo not given)
A: inactive

Q: Give the logged outcome of this assay for the following compound: CN(C)CCc1c[nH]c2ccc(Cn3cncn3)cc12
A: inactive

Q: Give the logged outcome of this assay for the following compound: Cc1c(O)c(=O)ccn1C
A: inactive

Q: Give the logged outcome of this assay for the following compound: CSCC[C@H](NC(=O)[C@H](Cc1ccc(OS(=O)(=O)O)cc1)NC(=O)[C@@H](N)CC(=O)O)C(=O)NCC(=O)N[C@@H](Cc1c[nH]c2ccccc12)C(=O)N[C@@H](CCSC)C(=O)N[C@@H](CC(=O)O)C(=O)N[C@@H](Cc1ccccc1)C(N)=O
A: inactive

Q: Give the logged outcome of this assay for the following compound: NCC(O)CC(=O)O (stereo not given)
A: inactive

Q: Give the logged outcome of this assay for the following compound: CCCn1c(=O)[nH]c(=O)c2[nH]cnc21
A: inactive

Q: Give the logged outcome of this assay for the following compound: O=C1c2ccccc2C(=O)C1c1ccc(F)cc1
A: inactive

Q: Give the logged outcome of this assay for the following compound: CC[C@@H](C)[C@H](N)C(=O)O
A: inactive

----------
System name: Voltage-gated inwardly rectifying potassium channel KCNH2 (Homo sapiens) (UniProt Q12809)
Sequence (Q12809 whole entry, looked up): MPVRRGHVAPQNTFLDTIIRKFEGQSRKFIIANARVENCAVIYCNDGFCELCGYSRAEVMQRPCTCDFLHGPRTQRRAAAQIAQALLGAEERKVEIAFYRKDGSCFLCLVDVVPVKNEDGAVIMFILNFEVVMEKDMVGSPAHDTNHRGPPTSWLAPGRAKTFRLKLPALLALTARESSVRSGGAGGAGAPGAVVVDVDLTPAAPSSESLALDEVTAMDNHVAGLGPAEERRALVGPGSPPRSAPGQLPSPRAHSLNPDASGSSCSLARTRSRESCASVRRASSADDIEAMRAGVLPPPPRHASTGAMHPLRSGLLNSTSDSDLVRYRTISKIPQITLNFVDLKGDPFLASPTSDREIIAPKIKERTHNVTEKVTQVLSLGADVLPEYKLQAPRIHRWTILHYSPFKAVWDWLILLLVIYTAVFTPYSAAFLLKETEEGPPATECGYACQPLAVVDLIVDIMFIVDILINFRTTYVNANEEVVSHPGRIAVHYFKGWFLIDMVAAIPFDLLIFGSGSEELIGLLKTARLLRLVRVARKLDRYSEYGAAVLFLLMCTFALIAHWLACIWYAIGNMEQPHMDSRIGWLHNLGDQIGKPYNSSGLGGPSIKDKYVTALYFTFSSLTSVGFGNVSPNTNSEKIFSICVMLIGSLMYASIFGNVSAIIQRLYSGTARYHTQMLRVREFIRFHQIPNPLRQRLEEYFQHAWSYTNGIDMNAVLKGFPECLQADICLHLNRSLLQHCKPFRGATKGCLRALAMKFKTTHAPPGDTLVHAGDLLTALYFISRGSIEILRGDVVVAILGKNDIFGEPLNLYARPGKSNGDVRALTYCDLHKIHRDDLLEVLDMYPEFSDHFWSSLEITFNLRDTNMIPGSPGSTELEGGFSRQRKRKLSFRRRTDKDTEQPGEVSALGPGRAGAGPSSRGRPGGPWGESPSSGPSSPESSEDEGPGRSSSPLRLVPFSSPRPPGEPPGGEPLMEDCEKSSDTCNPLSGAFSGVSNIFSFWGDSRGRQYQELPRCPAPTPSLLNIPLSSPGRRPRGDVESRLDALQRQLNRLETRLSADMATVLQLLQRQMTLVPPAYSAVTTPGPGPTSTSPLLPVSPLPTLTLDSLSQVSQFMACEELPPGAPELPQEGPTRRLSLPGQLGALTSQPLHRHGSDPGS
Assay remarks: Human Ether-a-go-go-Related Gene (hERG) channel small molecule antagonists: fluorescence cell-based qHTS assay (AID 1671200); note: nearly all actives have a fitted effect of over 50% in size
Condition label: hERG-U2OS cells, FluxOR thallium flux fluorescence; series mostly up to 76.8 µM
Inconclusive results are not listed. The source made the active and inactive calls. The call rests on the fitted dose curve; in most records, active means well fitted inhibition curve with a large enough effect in the repeat runs; inconclusive means weak or mixed curves; inactive means flat fitted curve, though single readings scatter.
Parameter call: string, one of TRUE for active, FALSE for inactive

Check out these entries, answers already filled in.
CC(C)C(=O)C(C)C
FALSE
CCOC(=O)C1=NN(c2ccc(Cl)cc2Cl)C(C)(C(=O)OCC)C1 (centres undefined)
TRUE
c1ccc2cc3c4ccccc4c4ccccc4c3cc2c1
FALSE
CCOc1ccc([N+](=O)[O-])cc1
FALSE
Oc1ccc(C2(c3ccc(O)c(C4CCCCC4)c3)CCCCC2)cc1C1CCCCC1
FALSE

Q: Give the logged outcome of this assay for the following compound: CCN(CC)c1ccc(C=O)cc1
A: FALSE

Q: Give the logged outcome of this assay for the following compound: C[C@H]1O[C@@H](O[C@H]2CC[C@@]3(C)[C@H](CC[C@@H]4[C@@H]3C[C@@H](O)[C@]3(C)[C@@H](C5=CC(=O)OC5)CC[C@]43O)C2)C[C@H](O)[C@@H]1O[C@H]1C[C@H](O)[C@H](O[C@H]2C[C@H](O)[C@H](O[C@@H]3O[C@H](CO)[C@@H](O)[C@H](O)[C@H]3O)[C@@H](C)O2)[C@@H](C)O1
A: FALSE

Q: Give the logged outcome of this assay for the following compound: CC(C)=NNC(N)=S
A: FALSE

Q: Give the logged outcome of this assay for the following compound: C1=CCCC1
A: FALSE

Q: Give the logged outcome of this assay for the following compound: C/C(=N\[Si](C)(C)C)O[Si](C)(C)C
A: FALSE

Q: Give the logged outcome of this assay for the following compound: COc1ccc(OC)c(N=Nc2c(O)ccc3ccccc23)c1
A: FALSE
